Measured Kd values are reported for all entries that follow.
target: c-Fos/c-Jun (Homo sapiens, UniProt P01100;P05412 full;full); experiment: MITOMI-type chip (QPID); rabbit reticulocyte lysate, 1 h; wash 50 mM HEPES; temperature not stated; DNA spotted at 0.0156-2 uM; details: tags: c-Fos N-cMyc, C-His6; c-Jun HA and V5 at the termini (kept); copies: 1;1; label: Cy5 on the primer strand
Sequence (P01100 whole entry, chain 1 of 2): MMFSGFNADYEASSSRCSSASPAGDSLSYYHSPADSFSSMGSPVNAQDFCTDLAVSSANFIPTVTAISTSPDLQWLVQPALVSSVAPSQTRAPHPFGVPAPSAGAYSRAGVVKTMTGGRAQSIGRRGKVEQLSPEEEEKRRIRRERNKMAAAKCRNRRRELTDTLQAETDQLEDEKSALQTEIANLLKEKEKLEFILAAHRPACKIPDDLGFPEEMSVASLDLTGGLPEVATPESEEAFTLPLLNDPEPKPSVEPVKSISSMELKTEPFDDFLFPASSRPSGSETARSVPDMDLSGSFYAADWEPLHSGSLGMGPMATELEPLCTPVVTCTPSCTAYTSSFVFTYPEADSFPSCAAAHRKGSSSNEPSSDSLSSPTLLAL
Sequence (P05412 whole entry, chain 2 of 2): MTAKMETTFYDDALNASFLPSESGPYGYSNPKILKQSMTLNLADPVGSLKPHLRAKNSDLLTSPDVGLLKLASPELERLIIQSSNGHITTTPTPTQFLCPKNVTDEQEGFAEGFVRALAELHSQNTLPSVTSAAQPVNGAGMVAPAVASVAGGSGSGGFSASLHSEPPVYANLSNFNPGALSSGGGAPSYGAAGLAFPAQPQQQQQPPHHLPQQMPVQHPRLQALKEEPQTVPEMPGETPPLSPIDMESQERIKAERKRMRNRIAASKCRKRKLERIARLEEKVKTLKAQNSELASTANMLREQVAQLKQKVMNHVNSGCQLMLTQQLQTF

{"columns": ["binder", "Kd / nM"],
 "data": [
  ["oligo 4 (AP-1) (dsDNA) DNA 1: TTATGACCTGGGAGTGAGTCAATGGAATCCACAGA DNA 2: TCTGTGGATTCCATTGACTCACTCCCAGGTCATAA", 500],
  ["oligo 1 (CRE) (dsDNA) DNA 1: GGCCACTACCGCTTCCTCCACATGACGTCATGGTTTTCTCCACCAAGGAAGT DNA 2: ACTTCCTTGGTGGAGAAAACCATGACGTCATGTGGAGGAAGCGGTAGTGGCC", 190],
  ["oligo 2 (CRE) (dsDNA) DNA 1: TTATGACCTGGGAGTGACGTCATGGAATCCACAGA DNA 2: TCTGTGGATTCCATGACGTCACTCCCAGGTCATAA", 150],
  ["oligo 3 (AP-1) (dsDNA) DNA 1: GGCCACTACCGCTTCCTCCACATGAGTCATGGTTTTCTCCACCAAGGAAGT DNA 2: ACTTCCTTGGTGGAGAAAACCATGACTCATGTGGAGGAAGCGGTAGTGGCC", 270]
]}
